B1: TPR 5TU (parent)
chain: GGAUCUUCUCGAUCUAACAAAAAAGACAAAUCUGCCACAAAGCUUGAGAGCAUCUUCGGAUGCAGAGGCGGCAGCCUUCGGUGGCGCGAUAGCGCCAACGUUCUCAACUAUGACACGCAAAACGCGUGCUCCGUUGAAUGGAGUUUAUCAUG

- Variants of: B1
- Procedure Details: polymerase ribozyme fitness, log enrichment relative to wild type (log ratio); higher = more active; in vitro selection for triplet polymerase activity
Variants at the floor of the assay were thinned out.
List of polymerase ribozyme fitness (log ratio) values.

INSERT INTO measurements (change, recorded_measurement) VALUES
  ('C35U C93A C103G', '≤ -4.2'),
  ('U4G A97U', 0.0622),
  ('G81C G117A A119C', 0.184),
  ('A115C A142G A150U', -3.13),
  ('G92C U111C', -3.45),
  ('A28U A73G', '≤ -4.2'),
  ('C38A U55A C85A', -2.66),
  ('C38U C85U C105U C123G', 0.319);

Can you look up the measured polymerase ribozyme fitness (log ratio) of U61A G84A G92U G100U for me? ≤ -4.2

Hey, just so you know, these numbers are from the RNAGym collection of RNA variant scans (doi:10.1073/pnas.2313332121).
